B1: PLAGL1 (parent)
chain: CKDFLCQFCAQRFGRKDHLTRHTK

Variants of: B1
Test: protein stability index of a GFP-peptide fusion (GPS, HEK-293T) (PSI 1-6); higher = more stable;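 note: lentivirally expressed fusions sorted by FACS into six bins by GFP to DsRed ratio, PSI derived from sequencing read proportions per bin multiplied by bin number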
Settings: c terminus: a fixed tail appended
Give measured protein stability index for each item. Keep answers brief.

Reported protein stability index ( F13I ) = 2.02

GET /value?item= F4A &field=protein stability index returns 2.05

The variant C1R showed protein stability index equal to 2.04
